// values below are reported MIC
System: Staphylococcus aureus
Test Protocol: Antibacterial activity against Staphylococcus aureus ATCC 29213 with GyrB T173N mutation after 18 to 20 hrs
Type: functional
Readout Label: MIC (µg/mL)

> print(dat)
                                     smiles            test.target  reading.unit  result.number
1  CCNC(=O)Nc1nc2cc(-c3cccnc3)cc(-c3ncccc3F)c2[nH]1  Staphylococcus aureus         µg/mL            0.5
2  CO[C@@H]1[C@@H](OC(N)=O)[C@@H](O)[C@H](Oc2ccc3c(O)c(NC(=O)c4ccc(O)c(CC=C(C)C)c4)c(=O)oc3c2C)OC1(C)C  Staphylococcus aureus         µg/mL           0.25
3  CCNC(=O)Nc1nc2cc(-c3cnc(OC)nc3)c(OC)cc2[nH]1  Staphylococcus aureus         µg/mL             16
4  O=C(O)c1cn(C2CC2)c2cc(N3CCNCC3)c(F)cc2c1=O  Staphylococcus aureus         µg/mL           0.25
